- subject-of-test: Histone-arginine methyltransferase CARM1 (Homo sapiens, UniProt Q86X55)
- Sequence (Q86X55 whole entry): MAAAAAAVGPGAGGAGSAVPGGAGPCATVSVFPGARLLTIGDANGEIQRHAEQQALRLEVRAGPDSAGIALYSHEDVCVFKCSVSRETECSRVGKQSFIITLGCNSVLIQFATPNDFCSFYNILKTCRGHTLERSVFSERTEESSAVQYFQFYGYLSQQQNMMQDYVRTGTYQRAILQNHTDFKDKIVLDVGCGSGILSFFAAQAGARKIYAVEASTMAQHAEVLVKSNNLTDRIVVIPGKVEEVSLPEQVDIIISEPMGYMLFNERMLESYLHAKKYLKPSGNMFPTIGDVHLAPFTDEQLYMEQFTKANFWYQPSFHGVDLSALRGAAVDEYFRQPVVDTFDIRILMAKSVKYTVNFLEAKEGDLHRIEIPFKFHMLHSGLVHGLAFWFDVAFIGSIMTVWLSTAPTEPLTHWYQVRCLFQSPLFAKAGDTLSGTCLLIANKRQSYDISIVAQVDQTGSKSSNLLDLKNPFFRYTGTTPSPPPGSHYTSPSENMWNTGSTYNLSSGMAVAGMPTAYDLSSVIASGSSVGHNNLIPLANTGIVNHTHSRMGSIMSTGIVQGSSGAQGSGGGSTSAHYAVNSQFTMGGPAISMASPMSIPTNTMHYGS
- experimental-protocol: Inhibition of human PRMT4 using histone H3 as substrate and SAM as cofactor by radiometric HotSpot assay
outcome-measure: IC50 (nM)
Give bare numbers, in nM.

Consider the following illustrative entries.
N=C(N)NCCC[C@H](N)C(=O)NCC(=O)N[C@@H](CCCN)C(=O)N[C@@H](CCCNC(=N)NCCCSC[C@H]1O[C@@H](n2cnc3c(N)ncnc32)[C@H](O)[C@@H]1O)C(=O)O	2.8
Nc1ncnc2c1ncn2[C@@H]1O[C@H](CSCCNCc2cccc(-c3cncnc3)c2)[C@@H](O)[C@H]1O	9.3
Nc1ncnc2c1ncn2[C@@H]1O[C@H](CSCCNCc2cccc(-c3ccoc3)c2)[C@@H](O)[C@H]1O	1.2

The compound listed as Nc1ncnc2c1ncn2[C@@H]1O[C@H](CSCCCNCc2cccc(-c3cncnc3)c2)[C@@H](O)[C@H]1O shows IC50 equal to 49

----------
- subject-of-test: PRMT5/MEP50 complex (Homo sapiens, UniProt O14744)
- Sequence (O14744 whole entry): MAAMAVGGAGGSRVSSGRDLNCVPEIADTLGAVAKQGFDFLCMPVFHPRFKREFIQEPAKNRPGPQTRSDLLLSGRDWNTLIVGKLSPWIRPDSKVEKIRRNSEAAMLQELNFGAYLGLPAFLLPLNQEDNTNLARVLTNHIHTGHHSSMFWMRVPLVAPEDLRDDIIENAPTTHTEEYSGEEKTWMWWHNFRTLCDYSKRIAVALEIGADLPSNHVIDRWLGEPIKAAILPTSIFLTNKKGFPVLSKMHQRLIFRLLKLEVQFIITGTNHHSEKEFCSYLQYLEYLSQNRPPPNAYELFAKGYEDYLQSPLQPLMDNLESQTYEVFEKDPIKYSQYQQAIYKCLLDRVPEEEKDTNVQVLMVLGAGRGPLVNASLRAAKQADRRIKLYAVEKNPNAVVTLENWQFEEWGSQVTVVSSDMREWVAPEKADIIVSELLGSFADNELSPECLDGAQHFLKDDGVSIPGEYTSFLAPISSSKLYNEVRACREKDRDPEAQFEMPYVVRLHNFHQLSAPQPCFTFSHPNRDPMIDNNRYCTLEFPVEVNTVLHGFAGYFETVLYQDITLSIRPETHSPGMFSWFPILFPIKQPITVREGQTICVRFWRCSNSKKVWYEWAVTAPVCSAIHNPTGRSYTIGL
- Sequence (Q9BQA1 whole entry, further chain): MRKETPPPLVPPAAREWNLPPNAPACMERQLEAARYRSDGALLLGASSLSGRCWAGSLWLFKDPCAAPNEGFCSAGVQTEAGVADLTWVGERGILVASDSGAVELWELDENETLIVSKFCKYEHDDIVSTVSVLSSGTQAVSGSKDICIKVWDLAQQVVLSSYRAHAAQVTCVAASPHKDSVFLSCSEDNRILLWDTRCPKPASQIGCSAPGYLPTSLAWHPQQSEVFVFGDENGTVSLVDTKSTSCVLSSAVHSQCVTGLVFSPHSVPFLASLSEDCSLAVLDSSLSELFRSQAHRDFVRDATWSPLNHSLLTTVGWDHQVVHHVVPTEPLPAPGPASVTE
- experimental-protocol: Inhibition of human PRMT5/MEP50 using Histone H2 as substrate and SAM as cofactor by radiometric HotSpot assay
- Assay type: protein-complex assay
Would you kindly list pIC50 for each of these compounds?
One number for each entry, as −log10 of the molar value.

N=C(N)NCCC[C@H](N)C(=O)NCC(=O)N[C@@H](CCCN)C(=O)N[C@@H](CCCNC(=N)NCCCSC[C@H]1O[C@@H](n2cnc3c(N)ncnc32)[C@H](O)[C@@H]1O)C(=O)O	9.38

Next compound, pIC50 to be filled in.
// pIC50 value for N=C(NCCSC[C@H]1O[C@@H](n2cnc3c(N)ncnc32)[C@H](O)[C@@H]1O)Nc1ccccc1 : 6.45

----------
Please respond with reported inhibition for every item in the list.
- subject-of-test: Protein arginine N-methyltransferase 8 (Homo sapiens)
- Sequence (Q9NR22 2-394 limits assumed): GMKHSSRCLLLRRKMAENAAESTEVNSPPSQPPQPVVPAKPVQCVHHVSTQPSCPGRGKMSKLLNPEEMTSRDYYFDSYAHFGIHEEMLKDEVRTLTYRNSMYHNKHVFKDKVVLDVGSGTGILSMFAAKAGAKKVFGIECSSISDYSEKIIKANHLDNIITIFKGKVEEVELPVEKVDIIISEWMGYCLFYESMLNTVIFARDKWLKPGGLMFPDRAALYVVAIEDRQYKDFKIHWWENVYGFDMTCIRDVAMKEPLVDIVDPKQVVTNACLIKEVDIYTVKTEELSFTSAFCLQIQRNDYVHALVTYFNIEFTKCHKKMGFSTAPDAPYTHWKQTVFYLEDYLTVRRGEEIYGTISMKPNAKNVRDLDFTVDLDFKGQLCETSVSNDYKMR
- experimental-protocol: Inhibition of human PRMT8 using Histone H4 as substrate and SAM as cofactor at 10 uM by radiometric HotSpot assay relative to control

Nc1ncnc2c1ncn2[C@@H]1O[C@H](CSCCOc2ccc(-c3ccc(F)cc3)cc2)[C@@H](O)[C@H]1O	< 50%
N=C(NCCCN)NCCCSC[C@H]1O[C@@H](n2cnc3c(NCCCc4ccccc4)ncnc32)[C@H](O)[C@@H]1O	70%
N=C(NCCCSC[C@H]1O[C@@H](n2cnc3c(N)ncnc32)[C@H](O)[C@@H]1O)Nc1cccc(-c2ccc(C(F)(F)F)cc2)c1	> 95%

Dear colleague, could you please provide inhibition for the compounds listed below?
1. N=C(NCCCSC[C@H]1O[C@@H](n2cnc3c(N)ncnc32)[C@H](O)[C@@H]1O)Nc1cccc(-c2n[nH]cc2C(F)(F)F)c1
2. Nc1ncnc2c1ncn2[C@@H]1O[C@H](CSCCCNCc2cccc(-c3ccc(Cl)cc3)c2)[C@@H](O)[C@H]1O
3. Nc1ncnc2c1ncn2[C@@H]1O[C@H](CSCCNC(=O)NCc2ccc(F)cc2)[C@@H](O)[C@H]1O
4. Nc1ncnc2c1ncn2[C@@H]1O[C@H](CSCCCNCc2cccc(-c3ccc(C(F)(F)F)cc3)c2)[C@@H](O)[C@H]1O
5. COc1cc2nc(-c3ccc(N)cc3)nc(NCCSC[C@H]3O[C@@H](n4cnc5c(N)ncnc54)[C@H](O)[C@@H]3O)c2cc1OC
6. COc1cc2nc(-c3ccc(Cl)cc3)nc(NCCSC[C@H]3O[C@@H](n4cnc5c(N)ncnc54)[C@H](O)[C@@H]3O)c2cc1OC

Output:
> 95%
> 50%
< 30%
> 50%
< 50%
< 50%

----------
- subject-of-test: Protein arginine N-methyltransferase 8 (Homo sapiens)
- experimental-protocol: Inhibition of human PRMT8 using Histone H4 as substrate and SAM as cofactor at 10 uM by radiometric HotSpot assay relative to control
Answer each item with its documented inhibition.

Example compounds with recorded inhibition:
N=C(NCCSC[C@H]1O[C@@H](n2cnc3c(N)ncnc32)[C@H](O)[C@@H]1O)Nc1cccc(-c2ccoc2)c1	> 95%
N=C(NCCCSC[C@H]1O[C@@H](n2cnc3c(N)ncnc32)[C@H](O)[C@@H]1O)Nc1cccc(-c2ccc(O)cc2)c1	> 95%
Nc1ncnc2c1ncn2[C@@H]1O[C@H](CSCCCNCc2cccc(-c3cccc(F)c3)c2)[C@@H](O)[C@H]1O	> 50%
N=C(NCCCSC[C@H]1O[C@@H](n2cnc3c(N)ncnc32)[C@H](O)[C@@H]1O)Nc1cccc(-c2ccc(F)c(O)c2)c1	> 95%
Nc1ncnc2c1ncn2[C@@H]1O[C@H](CSCCNC(=O)NCc2ccccc2)[C@@H](O)[C@H]1O	< 30%

Each compound below has a reported value. Please supply its inhibition.
1. COc1cc2nc(-c3ccc(C(F)(F)F)cc3)nc(NCCSC[C@H]3O[C@@H](n4cnc5c(N)ncnc54)[C@H](O)[C@@H]3O)c2cc1OC
2. N=C(NCCCSC[C@H]1O[C@@H](n2cnc3c(N)ncnc32)[C@H](O)[C@@H]1O)Nc1cccc(-c2cccc([N+](=O)[O-])c2)c1

Output:
["< 50%", "> 95%"]

----------
- subject-of-test: UniProtKB O14744
outcome-measure: IC50 (nM)
Numbers only, in nM.

Per the record, N=C(NCCSC[C@H]1O[C@@H](n2cnc3c(N)ncnc32)[C@H](O)[C@@H]1O)Nc1ccccc1Br has IC50 of 18.2

----------
- subject-of-test: Histone-arginine methyltransferase CARM1 (Homo sapiens)
- experimental-protocol: Inhibition of PRMT4 (unknown origin) incubated for 1 hr in presence of 3H-SAM by topcount plate reader analysis
outcome-measure: pIC50
Answers are plain numbers, as −log10 of the molar value.

Reading of pIC50 for Nc1ncnc2c1ncn2[C@@H]1O[C@H](CSCCCCNCc2cccc(-c3ccc(Cl)cc3)c2)[C@@H](O)[C@H]1O with Histone-arginine methyltransferase CARM1 (Homo sapiens): 6.85

----------
- subject-of-test: Protein arginine N-methyltransferase 8 (Homo sapiens)
- experimental-protocol: Inhibition of human PRMT8 using Histone H4 as substrate and SAM as cofactor at 10 uM by radiometric HotSpot assay relative to control
Assign inhibition to each entry below.
Numbers only, in %.

Before answering, review these 2 worked examples.
N=C(NCCCSC[C@H]1O[C@@H](n2cnc3c(NCCCc4ccccc4)ncnc32)[C@H](O)[C@@H]1O)NC1CCC1	70
N=C(NCCCO)NCCCSC[C@H]1O[C@@H](n2cnc3c(NCCCc4ccccc4)ncnc32)[C@H](O)[C@@H]1O	70

For the next question, use this molecule.
Record summary for N=C(NCCCSC[C@H]1O[C@@H](n2cnc3c(NCCCc4ccccc4)ncnc32)[C@H](O)[C@@H]1O)NC1CCCCC1 : reported inhibition = 70

----------
- subject-of-test: UniProt Q9NR22
- experimental-protocol: Inhibition of human PRMT8 using Histone H4 as substrate and SAM as cofactor at 10 uM by radiometric HotSpot assay relative to control
I'd be grateful if you could share measured inhibition for these entries.

N=C(NCCCSC[C@H]1O[C@@H](n2cnc3c(N)ncnc32)[C@H](O)[C@@H]1O)Nc1cccc(-c2cccnc2)c1	> 95%
N=C(NCCCSC[C@H]1O[C@@H](n2cnc3c(N)ncnc32)[C@H](O)[C@@H]1O)Nc1cccc(-c2ccc(Cl)cc2)c1	> 95%
Nc1ncnc2c1ncn2[C@@H]1O[C@H](CSCCNC(=O)NCc2ccc(-c3ccccc3O)cc2)[C@@H](O)[C@H]1O	< 30%
COc1cc2nc(-c3ccoc3)nc(NCCSC[C@H]3O[C@@H](n4cnc5c(N)ncnc54)[C@H](O)[C@@H]3O)c2cc1OC	< 50%
N=C(NCCCSC[C@H]1O[C@@H](n2cnc3c(N)ncnc32)[C@H](O)[C@@H]1O)Nc1cccc(-c2ccc(F)nc2)c1	> 95%
Nc1ncnc2c1ncn2[C@@H]1O[C@H](CSCCNC(=O)Nc2ccccc2)[C@@H](O)[C@H]1O	< 30%
CCNC(=O)NCCSC[C@H]1O[C@@H](n2cnc3c(N)ncnc32)[C@H](O)[C@@H]1O	< 30%
Nc1ncnc2c1ncn2[C@@H]1O[C@H](CSCCNC(=O)NC2CCCCC2)[C@@H](O)[C@H]1O	< 30%
N=C(NCCCSC[C@H]1O[C@@H](n2cnc3c(NCCCc4ccccc4)ncnc32)[C@H](O)[C@@H]1O)NCCCc1ccccc1	70%
Nc1ncnc2c1ncn2[C@@H]1O[C@H](CSCCNC(=O)Nc2ccccc2Br)[C@@H](O)[C@H]1O	< 30%

// each listed compound needs a value for inhibition
1. Nc1ncnc2c1ncn2[C@@H]1O[C@H](CSCCNCc2cccc(-c3cncnc3)c2)[C@@H](O)[C@H]1O
2. N=C(NCCCSC[C@H]1O[C@@H](n2cnc3c(N)ncnc32)[C@H](O)[C@@H]1O)Nc1cccc(-c2cccc(F)c2)c1
3. COc1cc2nc(-c3ccccc3O)nc(NCCSC[C@H]3O[C@@H](n4cnc5c(N)ncnc54)[C@H](O)[C@@H]3O)c2cc1OC
4. Nc1ccc(-c2ccc(CNC(=O)NCCSC[C@H]3O[C@@H](n4cnc5c(N)ncnc54)[C@H](O)[C@@H]3O)cc2)cc1
5. Nc1ncnc2c1ncn2[C@@H]1O[C@H](CSCCNC(=O)NCc2ccc(-c3cc[nH]n3)cc2)[C@@H](O)[C@H]1O

Output:
1: > 50%; 2: > 95%; 3: < 50%; 4: < 30%; 5: < 30%
